ASSAY DETAILS: self-splicing fitness, log relative to wild type (ln ratio); higher = more splicing; Tetrahymena group I intron in knt gene, E. coli kanamycin selection, DiMSum; sequences stand for … in CUCUCU…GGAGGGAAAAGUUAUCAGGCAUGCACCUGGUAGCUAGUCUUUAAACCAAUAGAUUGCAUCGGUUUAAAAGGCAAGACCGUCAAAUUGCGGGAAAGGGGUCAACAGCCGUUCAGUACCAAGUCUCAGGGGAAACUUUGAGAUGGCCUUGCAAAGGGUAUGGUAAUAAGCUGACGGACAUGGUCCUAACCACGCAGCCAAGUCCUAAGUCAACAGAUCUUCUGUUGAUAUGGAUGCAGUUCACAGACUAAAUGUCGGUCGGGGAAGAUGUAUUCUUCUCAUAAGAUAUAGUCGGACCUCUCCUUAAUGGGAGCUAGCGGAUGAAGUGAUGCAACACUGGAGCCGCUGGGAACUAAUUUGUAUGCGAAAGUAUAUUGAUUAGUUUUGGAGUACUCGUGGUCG;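 further: selection with 25 µg/mL kanamycin versus none on LB agar overnight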
ASSAY CONDITIONS: 37 °C
Class field: derived from self-splicing fitness (ln); ranges band A: < -2; band B: ≥ -2 and < -1; band C: ≥ -1

Form: Item = ACUAAGCAAUAUUACGUAUC ; Class = ?
band A

Form: Item = CGCUAGCAAUAUUACGGAGG ; Class = ?
band C

Form: Item = UUUAAGCAAUAUUACGCGCC ; Class = ?
band B

Form: Item = CCGGAGCAAUAUUACGUAAC ; Class = ?
band B

Form: Item = AGCAAGCAAUAUUACGUACA ; Class = ?
band C

Form: Item = GAAUAGCAAUAUUACGAGGC ; Class = ?
band A

Form: Item = ACCGAGCAAUAUUACGGGCU ; Class = ?
band A

Form: Item = UCACAGCAAUAUUACGAUUC ; Class = ?
band A

Form: Item = GCAUAGCAAUAUUACGUGGA ; Class = ?
band B

Form: Item = GGACAGCAAUAUUACGACUG ; Class = ?
band C

Form: Item = CCGGAGCAAUAUUACGGUUA ; Class = ?
band A

Form: Item = ACCCAGCAAUAUUACGCACA ; Class = ?
band C

Form: Item = AGCAAGCAAUAUUACGCGCU ; Class = ?
band A

---

ASSAY DETAILS: self-splicing fitness, log relative to wild type (ln ratio); higher = more splicing; Tetrahymena group I intron in knt gene, E. coli kanamycin selection, DiMSum; sequences stand for … in CUCUCU…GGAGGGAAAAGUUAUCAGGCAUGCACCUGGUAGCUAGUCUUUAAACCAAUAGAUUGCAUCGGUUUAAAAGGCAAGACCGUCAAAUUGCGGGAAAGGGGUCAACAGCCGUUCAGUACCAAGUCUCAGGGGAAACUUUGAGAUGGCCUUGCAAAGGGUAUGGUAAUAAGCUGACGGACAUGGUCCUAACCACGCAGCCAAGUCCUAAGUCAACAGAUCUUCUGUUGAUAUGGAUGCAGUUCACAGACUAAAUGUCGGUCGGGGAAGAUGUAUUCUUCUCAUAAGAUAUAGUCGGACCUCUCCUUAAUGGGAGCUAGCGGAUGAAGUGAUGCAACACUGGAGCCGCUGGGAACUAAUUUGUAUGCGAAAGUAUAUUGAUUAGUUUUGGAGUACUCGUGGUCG
ASSAY CONDITIONS: 37 °C
Assign self-splicing fitness (ln) to each entry below.
Give the figure only, with no unit attached.

Sample UUGUAGCAAUAUUACGUACG — what was its self-splicing fitness (ln)?
-0.138

Sample CUCCAGCAAUAUUACGAGUG — what was its self-splicing fitness (ln)?
-1.34

Sample UCUCAGCAAUAUUACGAUUG — what was its self-splicing fitness (ln)?
-2.07

Sample UAUUAGCAAUAUUACGCCGU — what was its self-splicing fitness (ln)?
-1.63

Sample UCCCAGCAAUAUUACGUUAG — what was its self-splicing fitness (ln)?
-2.78

Sample GGUAAGCAAUAUUACGGCGC — what was its self-splicing fitness (ln)?
0.841

Sample ACGUAGCAAUAUUACGGUGA — what was its self-splicing fitness (ln)?
-0.727

Sample GGAAAGCAAUAUUACGAGCA — what was its self-splicing fitness (ln)?
-0.54

Sample GAGCAGCAAUAUUACGGGGA — what was its self-splicing fitness (ln)?
-2.05

Sample GAAAAGCAAUAUUACGCCCU — what was its self-splicing fitness (ln)?
-0.233

Sample GACAAGCAAUAUUACGCGAA — what was its self-splicing fitness (ln)?
-1.88

Sample UCUCAGCAAUAUUACGGCUU — what was its self-splicing fitness (ln)?
-3.05

Sample UACUAGCAAUAUUACGUGGG — what was its self-splicing fitness (ln)?
-2.46

Sample GAUGAGCAAUAUUACGCUUA — what was its self-splicing fitness (ln)?
-2.33

Sample GGCCAGCAAUAUUACGAAUG — what was its self-splicing fitness (ln)?
-2.17

Sample UCUAAGCAAUAUUACGCGGA — what was its self-splicing fitness (ln)?
-2.47

Sample GGGAAGCAAUAUUACGACAA — what was its self-splicing fitness (ln)?
-1.34

Sample CUCUAGCAAUAUUACGUCAU — what was its self-splicing fitness (ln)?
-4.18

Sample ACUCAGCAAUAUUACGUGCG — what was its self-splicing fitness (ln)?
-0.526

Sample GCUCAGCAAUAUUACGCCUA — what was its self-splicing fitness (ln)?
-0.514

Sample CGCCAGCAAUAUUACGCGAU — what was its self-splicing fitness (ln)?
-2.22

Sample ACGUAGCAAUAUUACGUAUG — what was its self-splicing fitness (ln)?
-3.33

---

ASSAY DETAILS: self-splicing fitness, log relative to wild type (ln ratio); higher = more splicing; Tetrahymena group I intron in knt gene, E. coli kanamycin selection, DiMSum; sequences stand for … in CUCUCU…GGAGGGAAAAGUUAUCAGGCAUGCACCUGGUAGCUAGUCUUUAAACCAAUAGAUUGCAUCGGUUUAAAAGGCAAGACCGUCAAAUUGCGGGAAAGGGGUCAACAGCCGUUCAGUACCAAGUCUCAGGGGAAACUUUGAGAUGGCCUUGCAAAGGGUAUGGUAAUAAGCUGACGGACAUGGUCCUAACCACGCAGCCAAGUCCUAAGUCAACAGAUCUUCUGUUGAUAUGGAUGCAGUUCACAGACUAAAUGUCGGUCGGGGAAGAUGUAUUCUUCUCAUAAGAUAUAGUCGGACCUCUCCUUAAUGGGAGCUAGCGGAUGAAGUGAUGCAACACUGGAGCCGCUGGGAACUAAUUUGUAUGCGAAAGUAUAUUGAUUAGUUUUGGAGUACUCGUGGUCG
ASSAY CONDITIONS: 30 °C
Record 1 (yes) whenever self-splicing fitness (ln) is at -2 or higher; record 0 (no) when lower.

Please tell me: is the sequence GACCAGCAAUAUUACGUAAG at or over -2 in terms of self-splicing fitness (ln)?
1 (yes)

Please tell me: is the sequence UUUCAGCAAUAUUACGAAGU at or over -2 in terms of self-splicing fitness (ln)?
1 (yes)

Please tell me: is the sequence GAAUAGCAAUAUUACGGUCC at or over -2 in terms of self-splicing fitness (ln)?
0 (no)

Please tell me: is the sequence AGAAAGCAAUAUUACGGCUC at or over -2 in terms of self-splicing fitness (ln)?
1 (yes)

Please tell me: is the sequence GCCCAGCAAUAUUACGCUGA at or over -2 in terms of self-splicing fitness (ln)?
1 (yes)

Please tell me: is the sequence GAGUAGCAAUAUUACGUCCU at or over -2 in terms of self-splicing fitness (ln)?
1 (yes)

Please tell me: is the sequence UUAGAGCAAUAUUACGCCCG at or over -2 in terms of self-splicing fitness (ln)?
1 (yes)

Please tell me: is the sequence UAGGAGCAAUAUUACGGUAU at or over -2 in terms of self-splicing fitness (ln)?
0 (no)

Please tell me: is the sequence UUAGAGCAAUAUUACGUAAG at or over -2 in terms of self-splicing fitness (ln)?
0 (no)

Please tell me: is the sequence CCACAGCAAUAUUACGUACG at or over -2 in terms of self-splicing fitness (ln)?
1 (yes)

Please tell me: is the sequence AGGUAGCAAUAUUACGUCAU at or over -2 in terms of self-splicing fitness (ln)?
0 (no)

Please tell me: is the sequence CUCUAGCAAUAUUACGUCUU at or over -2 in terms of self-splicing fitness (ln)?
0 (no)

Please tell me: is the sequence CCGAAGCAAUAUUACGGAGA at or over -2 in terms of self-splicing fitness (ln)?
0 (no)

Please tell me: is the sequence ACUCAGCAAUAUUACGUUAG at or over -2 in terms of self-splicing fitness (ln)?
0 (no)

Please tell me: is the sequence AAACAGCAAUAUUACGGUGG at or over -2 in terms of self-splicing fitness (ln)?
0 (no)

Please tell me: is the sequence GCGGAGCAAUAUUACGCGUU at or over -2 in terms of self-splicing fitness (ln)?
0 (no)

Please tell me: is the sequence UCCAAGCAAUAUUACGAGCA at or over -2 in terms of self-splicing fitness (ln)?
1 (yes)

Please tell me: is the sequence UCUUAGCAAUAUUACGGUUC at or over -2 in terms of self-splicing fitness (ln)?
0 (no)

Please tell me: is the sequence AAAUAGCAAUAUUACGUCGG at or over -2 in terms of self-splicing fitness (ln)?
0 (no)

Please tell me: is the sequence ACUCAGCAAUAUUACGGGCC at or over -2 in terms of self-splicing fitness (ln)?
1 (yes)

Please tell me: is the sequence UACAAGCAAUAUUACGGGGG at or over -2 in terms of self-splicing fitness (ln)?
0 (no)

Please tell me: is the sequence AGCGAGCAAUAUUACGUGGU at or over -2 in terms of self-splicing fitness (ln)?
0 (no)

Please tell me: is the sequence GCAUAGCAAUAUUACGGGUU at or over -2 in terms of self-splicing fitness (ln)?
1 (yes)

Please tell me: is the sequence CUUUAGCAAUAUUACGCGCU at or over -2 in terms of self-splicing fitness (ln)?
0 (no)

Please tell me: is the sequence AUUCAGCAAUAUUACGUCGA at or over -2 in terms of self-splicing fitness (ln)?
1 (yes)

Please tell me: is the sequence GCUGAGCAAUAUUACGGUGC at or over -2 in terms of self-splicing fitness (ln)?
0 (no)

Please tell me: is the sequence GACUAGCAAUAUUACGUUAC at or over -2 in terms of self-splicing fitness (ln)?
0 (no)

Please tell me: is the sequence CCGGAGCAAUAUUACGGGGU at or over -2 in terms of self-splicing fitness (ln)?
0 (no)

Please tell me: is the sequence UCAUAGCAAUAUUACGUGUC at or over -2 in terms of self-splicing fitness (ln)?
0 (no)

Please tell me: is the sequence ACGUAGCAAUAUUACGCAAU at or over -2 in terms of self-splicing fitness (ln)?
0 (no)

Please tell me: is the sequence AGGGAGCAAUAUUACGACCU at or over -2 in terms of self-splicing fitness (ln)?
0 (no)

Please tell me: is the sequence CGCAAGCAAUAUUACGGGCC at or over -2 in terms of self-splicing fitness (ln)?
1 (yes)

Please tell me: is the sequence GAAUAGCAAUAUUACGACAC at or over -2 in terms of self-splicing fitness (ln)?
1 (yes)

Please tell me: is the sequence GCUAAGCAAUAUUACGAGGC at or over -2 in terms of self-splicing fitness (ln)?
1 (yes)

Please tell me: is the sequence GCAAAGCAAUAUUACGGGCG at or over -2 in terms of self-splicing fitness (ln)?
1 (yes)

Please tell me: is the sequence AACGAGCAAUAUUACGGAUG at or over -2 in terms of self-splicing fitness (ln)?
0 (no)

Please tell me: is the sequence UUCGAGCAAUAUUACGCCAG at or over -2 in terms of self-splicing fitness (ln)?
0 (no)

Please tell me: is the sequence GCCGAGCAAUAUUACGCCGU at or over -2 in terms of self-splicing fitness (ln)?
0 (no)

Please tell me: is the sequence CAAAAGCAAUAUUACGCUGC at or over -2 in terms of self-splicing fitness (ln)?
0 (no)

Please tell me: is the sequence ACAUAGCAAUAUUACGAUGG at or over -2 in terms of self-splicing fitness (ln)?
1 (yes)

Please tell me: is the sequence GUACAGCAAUAUUACGCUCU at or over -2 in terms of self-splicing fitness (ln)?
1 (yes)

Please tell me: is the sequence UUGGAGCAAUAUUACGCGAU at or over -2 in terms of self-splicing fitness (ln)?
0 (no)

Please tell me: is the sequence UUUCAGCAAUAUUACGAUAU at or over -2 in terms of self-splicing fitness (ln)?
1 (yes)

Please tell me: is the sequence UACCAGCAAUAUUACGUCAA at or over -2 in terms of self-splicing fitness (ln)?
1 (yes)

Please tell me: is the sequence GGCGAGCAAUAUUACGAGAC at or over -2 in terms of self-splicing fitness (ln)?
1 (yes)

Please tell me: is the sequence UUCUAGCAAUAUUACGUUCU at or over -2 in terms of self-splicing fitness (ln)?
0 (no)

Please tell me: is the sequence AGCAAGCAAUAUUACGUUAU at or over -2 in terms of self-splicing fitness (ln)?
0 (no)

Please tell me: is the sequence GACUAGCAAUAUUACGACCG at or over -2 in terms of self-splicing fitness (ln)?
1 (yes)

Please tell me: is the sequence UAAGAGCAAUAUUACGGUCA at or over -2 in terms of self-splicing fitness (ln)?
1 (yes)

Please tell me: is the sequence UCGUAGCAAUAUUACGGGGU at or over -2 in terms of self-splicing fitness (ln)?
0 (no)

Please tell me: is the sequence UCAAAGCAAUAUUACGGAUG at or over -2 in terms of self-splicing fitness (ln)?
0 (no)

Please tell me: is the sequence GAAUAGCAAUAUUACGACAU at or over -2 in terms of self-splicing fitness (ln)?
1 (yes)

Please tell me: is the sequence AGUCAGCAAUAUUACGGGGG at or over -2 in terms of self-splicing fitness (ln)?
0 (no)

Please tell me: is the sequence GGGUAGCAAUAUUACGUGUC at or over -2 in terms of self-splicing fitness (ln)?
0 (no)

src = the supplement of paper PMC7877785
